- test target: E1HD (E1 helicase domain) (bovine papillomavirus type 1 (BPV-1), UniProt P03116 299-605)
- Sequence (P03116 299-605): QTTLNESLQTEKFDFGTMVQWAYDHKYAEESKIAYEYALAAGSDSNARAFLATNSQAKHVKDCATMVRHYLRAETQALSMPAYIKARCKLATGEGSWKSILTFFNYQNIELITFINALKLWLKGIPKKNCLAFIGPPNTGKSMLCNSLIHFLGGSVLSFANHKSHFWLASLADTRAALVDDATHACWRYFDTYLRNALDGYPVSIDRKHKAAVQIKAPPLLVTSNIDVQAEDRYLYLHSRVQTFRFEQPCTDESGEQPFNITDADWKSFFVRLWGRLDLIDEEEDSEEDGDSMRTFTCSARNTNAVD
- protocol notes: EMSA
readout type: pKd
Here pKd is given on a logarithmic scale as minus log10 of the concentration in mol/L.

The binder listed as TTTTTTTTTTTTTTTTTTTTTTTTTTTTTT (ssDNA) [T30] has a reported pKd of 5.74

Data origin, for the record: paper PMC1557793
